test system: endogenous TFE3; assay: TFE3 nuclear translocation, immunocytochemistry high-content imaging; assay type: cell-based; details: PKIS2 primary screening
test.readout: TFE3 % (%)
Entry rule: numbers only, all in %.

Data request: Consider the compound CS(=O)(=O)CCNCc1nc(-c2ccc3ncnc(Nc4ccc5c(cnn5Cc5ccccc5)c4)c3c2)cs1.Cl.Cl [UNC10225115A] and give its measured TFE3 %.
Data returned: 17.35

Data request: Name the recorded TFE3 % for Oc1cc(Nc2ccnc3cc(I)ccc23)ccc1F [UNC10225441A] .
Data returned: 8.03

Data request: Given the entry Cc1ccc(NC(=O)Nc2ccccc2F)cc1-c1ccc(C(=O)Nc2ccncc2)cc1 [UNC10225398A] , report its measured TFE3 %.
Data returned: 17.53

Data request: Given Fc1ccc(-c2ncn(CCCN3CCOCC3)c2-c2ccccn2)cc1 [UNC10225382A] , state its recorded TFE3 %.
Data returned: 18.86

Data request: Fill in the blank: the reported TFE3 % of Cl.c1ccc(-c2ccc3c(Nc4ccc5[nH]ncc5c4)ccnc3c2)nc1 [UNC10225007A] is ____.
Data returned: 16.03
